system: SF-268 CNS; assay: NCI tumour cell line growth inhibition, 48 h
I'd appreciate it if you could supply TGI values for the items below.

Reported TGI, compound COc1ccc(/C=C/c2sc3ccccc3[n+]2CCCCI)cc1OC : ____
> 10 µM

Reported TGI, compound CCOC(=O)c1sc2ncn(Cc3cccc(Br)c3)c(=O)c2c1C : ____
> 100 µM

Reported TGI, compound CCOC(=O)N1C2C=C(C)C(ON2C(=O)c2ccccc2)C2C(C)C(=O)N21 (stereo not drawn) : ____
> 100 µM

----------
system: HOP-62 NSCLC; assay: NCI tumour cell line growth inhibition, 48 h
PROPERTY_LABEL: GI50

Reported GI50, compound COc1ccc(-n2cc(-c3cc(OC)c(OC)c(OC)c3)nc2SCc2ccccc2)cc1 : ____
78 µM

Reported GI50, compound O=C1CC(c2cccc(O)c2)C2(C(=O)NC(=S)NC2=O)C(c2cccc(O)c2)C1 (stereo not drawn) : ____
> 100 µM

Reported GI50, compound CCCCCc1nc2c(c3c1CCCC3)CCCC2 : ____
13.1 µM

Reported GI50, compound O=c1c2ccccc2c(Br)c(Br)c2ccccc12 : ____
21 µM

Reported GI50, compound COC(=O)C1=C(C)NC(C)=C(C(=O)OC)C1/C=C(\Cl)c1ccc(Cl)c(Cl)c1 : ____
16.3 µM

Reported GI50, compound C/C=C/C/C=C/CCC(=O)[C@H]1O[C@H]1C(N)=O : ____
13 µM

Reported GI50, compound CC(=O)CCc1ccc(OC2OC(COC(=O)c3cc(O)c(O)c(O)c3)C(O)C(O)C2OC(=O)/C=C/c2ccccc2)cc1 (stereo not drawn) : ____
17.2 µM

Reported GI50, compound Cn1ccnc1C(=O)/C=C/c1ccc(C(=O)Nc2ccc(S(F)(F)(F)(F)F)cc2)cc1 : ____
4.05 µM

Reported GI50, compound CCOc1ccccc1NC(=O)c1cc2ccccc2cc1O : ____
3.32 µM

Reported GI50, compound N#Cc1cccc(OCc2nc(N)nc(N)c2-c2ccc(Cl)c(Cl)c2)c1 : ____
4.44 µM

Reported GI50, compound CCCc1cc(O)c2c3c(c(=O)oc2c1)CN(C)CC3 : ____
67.1 µM

Reported GI50, compound N/C(=C\C(=O)n1nc(-c2ccccc2)cc1N)c1ccccc1 : ____
8.3 µM

Reported GI50, compound Nc1ncnc2c1ncn2Cc1ccc(C23CC4CC(CC(C4)C2)C3)c(OCc2cc(F)c(F)cc2F)c1 : ____
6.98 µM

----------
test system: LOX IMVI melanoma; experiment: NCI tumour cell line growth inhibition, 48 h
I'd appreciate it if you could supply TGI values for the items below.

Reported TGI, compound COc1cc(C(=O)N2N=C(c3ccc(S(C)(=O)=O)cc3)CC2c2ccco2)cc(OC)c1OC (stereo not drawn) : ____
> 100 µM

Reported TGI, compound COc1cc(-c2nc3sccn3c2-c2ccnc(NCCNS(=O)(=O)c3ccc(Cl)cc3)n2)ccc1F : ____
> 100 µM

Reported TGI, compound COc1cccc(C2C3=C(COC3=O)N(CCO)c3cc(OC)ccc32)c1 (stereo not drawn) : ____
> 100 µM

----------
I'd appreciate it if you could supply TGI values for the items below.
test system: UACC-257 melanoma; assay: NCI tumour cell line growth inhibition, 48 h

Reported TGI, molecule CC1=NNC(=O)C1C1CC(c2c[nH]c3ccccc23)=NNC1=S (stereo unspecified) : ____
> 100 µM

Reported TGI, molecule COc1cc(C(=O)N2N=C(c3ccc(S(C)(=O)=O)cc3)CC2c2ccco2)cc(OC)c1OC (stereo unspecified) : ____
> 100 µM

Reported TGI, molecule COc1cc2c(c(O)c1OC)C(O)C1CCC(=O)N1C2c1cccc2ccccc12 (stereo unspecified) : ____
> 100 µM

Reported TGI, molecule CC(C)(C)n1c(=O)[nH]n(C2NN=Cc3cccc4cccc2c34)c1=O (stereo unspecified) : ____
> 100 µM

Reported TGI, molecule CC(=O)Oc1cc(C)c2c(c1OC(C)=O)CC1(O2)[C@@H](C)CCC2[C@@]3(C)CC[C@H](OC(C)=O)C(C)(C)C3CC[C@]21C (stereo partly specified) : ____
21.8 µM

Reported TGI, molecule N#CC(/C(=N/NC(=O)C(=O)NN)C(=O)Nc1nc([N+](=O)[O-])cs1)c1ccc(Cl)cc1 (stereo unspecified) : ____
> 100 µM

Reported TGI, molecule CC/C(=C(/c1ccc(OCCN(C)C)cc1)c1ccc(OC(=O)CCC(=O)c2c(C)[nH]c(/C=C3\N=C(c4ccc[nH]4)C=C3OC)c2C)cc1)c1ccccc1 : ____
14.7 µM

Reported TGI, molecule Cn1c(-c2cccs2)cc(-c2ccccc2)c1-c1cccs1 : ____
> 100 µM

Reported TGI, molecule CC(C)c1nc2cc(C(F)(F)F)ccc2[nH]c1=O : ____
> 100 µM

Reported TGI, molecule O=C1N(c2ccccc2)C2(c3ccccc3)CC3CCCC13S2 (stereo unspecified) : ____
51.1 µM

Reported TGI, molecule Cc1ncc([N+](=O)[O-])n1CCN(C)C(=O)CCCn1ccnc1[N+](=O)[O-] : ____
> 100 µM

Reported TGI, molecule CCCCCCNC(=O)c1cc(CCc2cc(O)ccc2O)ccc1O : ____
6.26 µM

Reported TGI, molecule CCC[CH2][Sn]([CH2]CCC)([O]C(=O)c1cc(F)ccc1F)[O][Sn]([CH2]CCC)([CH2]CCC)[O]C(=O)c1cc(F)ccc1F : ____
1.21 µM

Reported TGI, molecule CC1=NOC2(C1)C(=O)Nc1ccccc12 (stereo unspecified) : ____
> 100 µM

Reported TGI, molecule CSc1nc(NC2OCC(OC(C)=O)C(OC(C)=O)C2OC(C)=O)c(N=C(C)C(C)=O)c(=O)[nH]1 (stereo unspecified) : ____
> 100 µM

Reported TGI, molecule COc1cc(-c2nc3sccn3c2-c2ccnc(NCCNS(=O)(=O)c3ccc(Cl)cc3)n2)ccc1F : ____
> 100 µM

----------
tested on: M14 melanoma; assay: NCI tumour cell line growth inhibition, 48 h; in the data active = GI50 below about 0.43 µM; inactive = the rest
Respond using exactly one of the listed classes: active, inactive

What did this assay record as the result for Cn1ccnc1C(=O)/C=C/c1ccc(C(=O)Nc2ccc(S(F)(F)(F)(F)F)cc2)cc1 ?
inactive

What did this assay record as the result for N#Cc1ncc(-c2ccc(C(F)(F)F)cc2)c(NCc2cc(C(F)(F)F)cc(C(F)(F)F)c2)n1 ?
inactive

What did this assay record as the result for COC(=O)C1=C(C)NC(C)=C(C(=O)OC)C1/C=C(\Cl)c1ccc(Cl)c(Cl)c1 ?
inactive

What did this assay record as the result for CCOc1ccc(-c2cnnn2-c2nonc2-n2cccc2)cc1 ?
active

What did this assay record as the result for C#CCN(Cc1nc2cc(C(F)(F)F)ccc2nc1-c1ccccc1)c1ccc(OC(F)(F)F)cc1 ?
inactive

What did this assay record as the result for CC(C)c1c(C(=O)Nc2ccccc2)c(-c2ccccc2)c(-c2ccc(F)cc2)n1CC[C@@H]1CC=CC(=O)O1 ?
inactive

----------
system: NCI/ADR-RES ovarian; experiment: NCI tumour cell line growth inhibition, 48 h
I'd appreciate it if you could supply TGI values for the items below.

Reported TGI, compound Nc1ncnc2c1ncn2Cc1ccc(C23CC4CC(CC(C4)C2)C3)c(OCc2cc(F)c(F)cc2F)c1 : ____
> 100 µM

Reported TGI, compound Cn1c(N)c(C(N)=O)[nH]c1=S : ____
> 100 µM

Reported TGI, compound OC1(c2ccc(Cl)cc2)c2c(ccc3c2OCO3)C2=NCCN21 (stereo not drawn) : ____
> 100 µM

----------
system: IGROV1 ovarian; experiment: NCI tumour cell line growth inhibition, 48 h
PROPERTY_LABEL: TGI

Reported TGI, compound Cc1ccc(NC(=O)Cc2ccc(/C=C/C(=O)c3ncc[nH]3)cc2)cc1 : ____
> 25 µM

Reported TGI, compound O=Cc1c2ccccc2n2ccc3c4ccccc4[nH]c3c12 : ____
> 10 µM

Reported TGI, compound O=C(O)C1=CCCc2ccc3ccccc3c21 : ____
> 100 µM

Reported TGI, compound CCOc1ccc(NC(=O)C(=O)NO)cc1 : ____
> 100 µM

Reported TGI, compound O=[N+]([O-])c1ccc(-c2nc3ccc([N+](=O)[O-])cc3[nH]2)cc1 : ____
> 100 µM

Reported TGI, compound CC(C)(C)OC(=O)NCC(=O)NC1c2ccsc2/C(=N/O)[C@H]1O (stereo partly specified) : ____
> 100 µM

----------
I'd appreciate it if you could supply GI50 values for the items below.
tested on: HCT-15 colon; assay: NCI tumour cell line growth inhibition, 48 h

Reported GI50, compound CC(=O)Nc1ccc(/C=C/C(=O)c2ccccc2)cc1 : ____
7.54 µM

Reported GI50, compound c1ccc(C2CC(c3cccc(Nc4ccncc4)c3)=NN2c2ccccc2)cc1 (centres undefined) : ____
1.59 µM

Reported GI50, compound CCCc1cc(O)c2c3c(c(=O)oc2c1)CN(C)CC3 : ____
39.9 µM

Reported GI50, compound CCC[CH2][Sn]([CH2]CCC)([O]C(=O)c1cc(F)ccc1F)[O][Sn]([CH2]CCC)([CH2]CCC)[O]C(=O)c1cc(F)ccc1F : ____
0.254 µM

Reported GI50, compound CN(CCCCCl)P(=O)(OCc1ccc([N+](=O)[O-])o1)OCC1OC(n2ccc(N)nc2=O)C(F)(F)C1O (centres undefined) : ____
> 73.5 µM

Reported GI50, compound N#Cc1ncc(-c2ccc(C(F)(F)F)cc2)c(NCc2cc(C(F)(F)F)cc(C(F)(F)F)c2)n1 : ____
3.52 µM

Reported GI50, compound O=c1ccc(N=Nc2ccc([N+](=O)[O-])cc2)ccc1O : ____
3.89 µM

Reported GI50, compound Cc1cc2cc3cc(C)c(N(C)C)cc3[n+](C)c2cc1N(C)C : ____
4.52 µM

Reported GI50, compound COc1cc2cc(C(=O)CCC(=O)O)sc2cc1OC : ____
> 100 µM
